The entries below are paired with their reported pIC50.
- Target Or System: Cyp21 enzyme (Human HEK 293-Cyp21 stable transfected cells) (Homo sapiens)
- Construct: expressed in transfected cells
- Sequence (P08686 whole entry): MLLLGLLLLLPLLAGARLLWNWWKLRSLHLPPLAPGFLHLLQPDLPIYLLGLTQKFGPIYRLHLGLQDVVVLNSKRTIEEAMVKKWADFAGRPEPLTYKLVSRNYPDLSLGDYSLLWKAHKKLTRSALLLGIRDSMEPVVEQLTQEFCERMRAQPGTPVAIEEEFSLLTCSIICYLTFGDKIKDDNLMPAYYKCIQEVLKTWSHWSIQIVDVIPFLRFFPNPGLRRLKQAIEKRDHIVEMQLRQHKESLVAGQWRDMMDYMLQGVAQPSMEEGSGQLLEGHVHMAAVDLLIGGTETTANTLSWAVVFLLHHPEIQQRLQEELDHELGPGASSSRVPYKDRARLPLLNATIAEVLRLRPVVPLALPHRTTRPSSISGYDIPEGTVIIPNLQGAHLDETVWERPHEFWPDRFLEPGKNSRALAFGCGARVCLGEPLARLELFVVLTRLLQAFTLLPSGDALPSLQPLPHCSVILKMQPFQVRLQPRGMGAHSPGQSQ
- Procedure Text: CYP21-HEK293 enzymatic assay (IC50) (Biological Example 11)
- Assay type: cell-based
- Experimental Conditions: HEK 293-Cyp21 cells; read-out: CYP21-HEK293 enzymatic assay IC50 (Biological Example No. 11)
pIC50: −log10 of the molar value.

[
  {
    "Molecule": "CC1C[C@@H]2[C@H](CC[C@]3(C)C(c4cccnc4)=CC[C@@H]23)[C@@]2(C)CCC(=O)C=C12 (some centres unmarked) [Compound 309]",
    "Target Or System": "Cyp21 enzyme (Human HEK 293-Cyp21 stable transfected cells) (Homo sapiens)",
    "pIC50": "7.00 to 8.00"
  },
  {
    "Molecule": "C[C@]12CCC3C(CCC4=CC(=O)CC[C@@]43C)C1=CC=C2c1cncnc1 (some centres unmarked) [Compound 471]",
    "Target Or System": "Cyp21 enzyme (Human HEK 293-Cyp21 stable transfected cells) (Homo sapiens)",
    "pIC50": "7.00 to 8.00"
  }
]

Which value of pIC50 has been reported for C=C1C[C@@H]2[C@H](CC[C@]3(C)C(c4cccnc4)=CC[C@@H]23)[C@@]2(C)C=CC(=O)C=C12 [Compound 311] in the records?
> 8.00

Which value of pIC50 has been reported for CCC(=O)N1CCC2CCC3C(CC[C@]4(C)C(c5cccnc5)=CCC34)[C@@]2(C)CC1 (some centres unmarked) [Compound 436] in the records?
< 6.00

Which value of pIC50 has been reported for CCC(=O)N1CCC[C@@]2(C)C(CCC3C2CC[C@]2(C)C(c4cccnc4)=CCC32)C1 (some centres unmarked) [Compound 435] in the records?
< 6.00

Which value of pIC50 has been reported for CCCC(=O)N1CCC2CC[C@@H]3[C@H](CC[C@]4(C)C(n5ccnc5)=CC[C@@H]34)[C@@]2(C)CC1 (some centres unmarked) [Compound 434] in the records?
< 6.00

Which value of pIC50 has been reported for CC1=C2CCC3C4=CC=C(c5cccnc5)[C@@]4(C)CCC3[C@@]2(C)CCC1=O (some centres unmarked) [Compound 296] in the records?
< 7.00

Which value of pIC50 has been reported for COC(=O)N1CCC[C@@]2(C)[C@@H](CC[C@@H]3[C@@H]2CC[C@]2(C)C(n4ccnc4)=CC[C@@H]32)C1 [Compound 442] in the records?
< 7.00

Which value of pIC50 has been reported for C=C1C[C@@H]2[C@H](CC[C@]3(C)C(c4cccnc4)=CC[C@@H]23)[C@@]2(C)CCC(=O)C=C12 [Compound 312] in the records?
7.00 to 8.00

Which value of pIC50 has been reported for C[C@]12CC[C@H]3[C@@H](C=CC4=CC(=O)CC[C@@]43C)C1=CC=C2c1cccnc1 [Compound 289] in the records?
7.00 to 8.00

Which value of pIC50 has been reported for CON=C1C=C2CCC3C4=CC=C(c5cccnc5)[C@@]4(C)CCC3[C@@]2(C)CC1 (some centres unmarked) [Compound 287] in the records?
< 7.00

Which value of pIC50 has been reported for Cc1cccc(C)c1C(=O)O[C@@H]1CC[C@@]2(C)C(=CCC3C4=CC=C(c5cccnc5)[C@@]4(C)CCC32)C1 (some centres unmarked) [Compound 198] in the records?
< 6.00

Which value of pIC50 has been reported for C[C@]12CCC3C(CCC4=CC(=O)CC[C@@]43C)C1=CC=C2c1cnccn1 (some centres unmarked) [Compound 291] in the records?
< 7.00

Which value of pIC50 has been reported for C[C@]12CCC(=O)C(O)=C1C=C[C@@H]1[C@@H]2CC[C@]2(C)C(c3cccnc3)=CC[C@@H]12 [Compound 301] in the records?
< 6.00
